Target: Interleukin-5 (Mus musculus) (UniProt P04401)
Sequence (P04401 whole entry): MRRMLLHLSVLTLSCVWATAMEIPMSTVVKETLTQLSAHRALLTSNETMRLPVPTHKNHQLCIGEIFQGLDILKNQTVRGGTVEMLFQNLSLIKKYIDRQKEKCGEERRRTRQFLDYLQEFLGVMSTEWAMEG
Experiment: Inhibition of mouse IL5-mediated mouse Y16 cell proliferation at 30 uM after 48 hrs by WST1 assay
metric: inhibition (%)

Example compounds with recorded inhibition:
O=C(Nc1ccc2oc(C3CCCCC3)c(CO)c(=O)c2c1)C1CCCCC1; 9
CC(=O)OCc1c(-c2ccccc2)oc2ccc(NC(=O)C3CCCCC3)cc2c1=O; 75
O=C(Nc1ccc2oc(C3CCCCC3)c(CO)c(=O)c2c1)c1ccccc1; 90

P: CC(=O)OCc1c(C2CCCCC2)oc2ccc(NCc3ccccc3)cc2c1=O
Q: CC(=O)OCc1c(-c2ccc(F)cc2)oc2ccc(NC(=O)c3ccccc3)cc2c1=O
-- ask Please indicate which entry, P or Q , has the lower recorded inhibition value. Pick one; state its label.
-- reply Q
(Q: 12%, P: 78%)

1: CC(C)C(=O)OCc1c(C2CCCCC2)oc2ccc(NC(=O)c3ccccc3)cc2c1=O
2: O=C(Nc1ccc2oc(-c3ccc(F)cc3)c(CO)c(=O)c2c1)c1ccccc1
-- ask Hi there! Just curious which has the higher inhibition between 1 and 2 . Pick one; state its label.
-- reply 1
(1: 71%, 2: 19%)
